Please provide measured GI50 for the entries that follow.
Please give a number only; it is taken to be in nM.

GET GI50 | system: H2170 (Her2 amp) | item: C=CC(=O)Nc1cc(Nc2nccc(-n3cnc4ccccc43)n2)c(OC)cc1N(C)CCN(C)C
9.4

GET GI50 | system: H2170 (Her2 amp) | item: C=CC(=O)Nc1cc(Nc2nccc(Nc3cccc(Cl)c3)n2)c(OC)cc1N(C)CCN(C)C
12.6

GET GI50 | system: H2170 (Her2 amp) | item: C=CC(=O)Nc1cc(Nc2nccc(-c3cn(C)c4ccccc34)n2)c(OC)cc1N(C)CCN(C)C [AZD9291, reference compound]
117
